Reported IC50 ratio (WT IC50/mutant IC50) values for a set of binders
target: human CCR8 (human) (UniProt P51685); assay: cell-based or functional assay
Write the number on its own, no unit after it.

Examples with answers:
INSERT INTO measurements (binder, experimental_endpoint, test_result) VALUES
  ('h10A11 (IGKV4-1/IGHV3-73 A56V) (antibody, name in Kabat numbering, V domains shown) VH: EVQLVESGGGLVQPGGSLKLSCAASGFAFNTYALYWVRQASGKGLEWVGRIRSKSNNYVTYYADSVKDRFTISRDDSKNTAYLQMNSLKTEDTAVYYCTRARFYYSDYGYAMDYWGQGTLVTVSS VL: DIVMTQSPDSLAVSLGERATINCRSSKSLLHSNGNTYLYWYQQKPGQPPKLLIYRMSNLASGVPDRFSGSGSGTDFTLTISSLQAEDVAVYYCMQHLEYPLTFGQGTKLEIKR', 'IC50 ratio (WT IC50/mutant IC50)', 0.55),
  ('h10A11 (IGKV4-1/IGHV3-73 D100aE) (antibody, name in Kabat numbering, V domains shown) VH: EVQLVESGGGLVQPGGSLKLSCAASGFAFNTYALYWVRQASGKGLEWVGRIRSKSNNYATYYADSVKDRFTISRDDSKNTAYLQMNSLKTEDTAVYYCTRARFYYSEYGYAMDYWGQGTLVTVSS VL: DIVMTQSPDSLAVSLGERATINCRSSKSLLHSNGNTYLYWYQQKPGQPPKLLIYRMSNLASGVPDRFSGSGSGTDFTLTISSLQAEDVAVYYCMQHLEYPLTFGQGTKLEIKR', 'IC50 ratio (WT IC50/mutant IC50)', 0.3);

Q. # lookup: IC50 ratio (WT IC50/mutant IC50) of h10A11 (IGKV4-1/IGHV3-73 Y100bF) (antibody, name in Kabat numbering, V domains shown) VH: EVQLVESGGGLVQPGGSLKLSCAASGFAFNTYALYWVRQASGKGLEWVGRIRSKSNNYATYYADSVKDRFTISRDDSKNTAYLQMNSLKTEDTAVYYCTRARFYYSDFGYAMDYWGQGTLVTVSS VL: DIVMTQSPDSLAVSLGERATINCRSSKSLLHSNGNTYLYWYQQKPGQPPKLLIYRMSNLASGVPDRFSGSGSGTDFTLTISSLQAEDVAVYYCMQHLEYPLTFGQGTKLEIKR
A. 0.75
